system: COLO-684 (Endometrial Carcinoma); experiment: Bliss excess, mean over the matrix (fraction); higher = more synergy;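 further: after 72 h of two-drug dosing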
readout.name: Bliss excess

Reference set (3 entries):
INSERT INTO results (molecule, tested_on, result) VALUES
  ('N#Cc1cnc(Nc2cc(NC[C@H]3CNCCO3)c(C(F)(F)F)cn2)cn1 [SRA737] + CCc1c2c(nc3ccc(O)cc13)-c1cc3c(c(=O)n1C2)COC(=O)[C@]3(O)CC [SN-38] (first compound max 10 µM, 7x7, partner max 0.3 µM)', 'COLO-684 (Endometrial Carcinoma)', 0.0144),
  ('COc1nnc2ccc(N3CCC(c4ccc(OCCN5CCN(C)C(=O)[C@H]5C)cc4)CC3)nn12 [AZD5153] + C=CCn1c(=O)c2cnc(Nc3ccc(N4CCN(C)CC4)cc3)nc2n1-c1cccc(C(C)(C)O)n1 [AZD1775] (first compound max 1 µM, partner max 1 µM)', 'COLO-684 (Endometrial Carcinoma)', -0.0852),
  ('COc1nnc2ccc(N3CCC(c4ccc(OCCN5CCN(C)C(=O)[C@H]5C)cc4)CC3)nn12 [AZD5153] + CC1(C)CCC(CN2CCN(c3ccc(C(=O)NS(=O)(=O)c4ccc(NCC5CCOCC5)c([N+](=O)[O-])c4)c(Oc4cnc5[nH]ccc5c4)c3)CC2)=C(c2ccc(Cl)cc2)C1 [Venetoclax] (first compound max 1 µM, 7x7, partner max 1 µM)', 'COLO-684 (Endometrial Carcinoma)', -0.0435);

Note: attention shifts to another entry.
The molecule listed as C=CCn1c(=O)c2cnc(Nc3ccc(N4CCN(C)CC4)cc3)nc2n1-c1cccc(C(C)(C)O)n1 [AZD1775] + Nc1ccn([C@@H]2O[C@H](CO)[C@@H](O)C2(F)F)c(=O)n1 [Gemcitabine] (first compound max 1 µM, partner max 0.3 µM) has a reported Bliss excess of -0.0674

Measured values drawn from the supplement of paper PMC11061612 for this set.
